The reported measurements were obtained from PubChem BioAssay AID1963962.

For each entry below, report its IC50 value.
Test system: 967376-340-R-J2-PDC multicell spheroid viability
Experiment: Anticancer human tumor 967376-340-R-J2-PDC patient-derived colon adenocarcinoma cell line growth inhibition [PI3K]
Details: compound alone; run of 06/13/2023

*Q* Recorded IC50 of CC(Nc1ncnc2nc[nH]c12)c1cc2cccc(Cl)c2c(=O)n1-c1ccccc1 (configuration not stated) , please.
*A* > 10 µM

Let's switch to this compound now.
*Q* Recorded IC50 of `COc1c(OCCCN2CCOCC2)ccc2c3n(c(=NC(=O)c4cnc(N)nc4)nc12)CCN3` , please.
*A* 212 nM [middle of 8 runs]

---

System: 967376-340-R-J2-PDC multicell spheroid viability
Experiment: Anticancer human tumor 967376-340-R-J2-PDC cell line growth inhibition [PI3K];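 also: spheroids exposed to agents for 7 days before read-out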
Details: curve of first compound; second compound 0.0316 µM
pIC50: −log10 of the molar value.
Exercise: for every item that follows, state its recorded pIC50.

*Q* # input compound: CC1(C)CCC(Nc2ncc(C(F)(F)F)c(-c3c[nH]c4c(P(C)(C)=O)c(C#N)ccc34)n2)CN1 (centres undefined) + COc1c(OCCCN2CCOCC2)ccc2c3n(c(=NC(=O)c4cnc(N)nc4)nc12)CCN3 ; wanted: its pIC50
*A* 5.51

*Q* Can you share its pIC50? I mean this compound: Cn1nccc1Nc1nccc(-c2ccn(C(CO)c3ccc(Cl)c(F)c3)c(=O)c2)n1 (centres undefined) + CC(Nc1ncnc2nc[nH]c12)c1cc2cccc(Cl)c2c(=O)n1-c1ccccc1
*A* < 5.00

Respectfully, I request pIC50 for each entry included below.
1. Cn1cnc2c(F)c(Nc3ccc(Br)cc3Cl)c(C(=O)NOCCO)cc21 + COc1c(OCCCN2CCOCC2)ccc2c3n(c(=NC(=O)c4cnc(N)nc4)nc12)CCN3
2. CC1(C)CCC(CN2CCN(c3ccc(C(=O)NS(=O)(=O)c4ccc(NCC5CCOCC5)c([N+](=O)[O-])c4)c(Oc4cnc5[nH]ccc5c4)c3)CC2)=C(c2ccc(Cl)cc2)C1 + Cc1nc(NC(=O)N2CCCC2C(N)=O)sc1-c1ccnc(C(C)(C)C(F)(F)F)c1
3. Cn1ncnc1[C@H]1c2n[nH]c(=O)c3cc(F)cc(c23)N[C@@H]1c1ccc(F)cc1 + CC(Nc1ncnc2nc[nH]c12)c1cc2cccc(Cl)c2c(=O)n1-c1ccccc1

*A*
1. 6.00
2. < 5.00
3. < 7.00

---

Test system: 967376-340-R-J2-PDC multicell spheroid viability
Experiment: Anticancer human tumor 967376-340-R-J2-PDC cell line growth inhibition [PI3K];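 also: spheroids exposed to agents for 7 days before read-out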;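 as to viability, T/C: luminescence used as surrogate of cell viability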
Details: second compound 0.316 µM; first compound 0.0316 µM; stronger effect = lower value
For each record, write down the corresponding viability, T/C.
Numbers only, in %.

State the recorded viability, T/C for every item in the following list.
1. Cn1nccc1Nc1nccc(-c2ccn(C(CO)c3ccc(Cl)c(F)c3)c(=O)c2)n1 (configuration not stated) + CC(Nc1ccc2c(c1)OCCn1cc(N3C(=O)OCC3C(F)F)nc1-2)C(N)=O
2. CC1(C)CCC(Nc2ncc(C(F)(F)F)c(-c3c[nH]c4c(P(C)(C)=O)c(C#N)ccc34)n2)CN1 (configuration not stated) + CC(Nc1ccc2c(c1)OCCn1cc(N3C(=O)OCC3C(F)F)nc1-2)C(N)=O
3. C[C@@H](NC(=O)c1ncnc(N)c1Cl)c1ncc(C(=O)Nc2cc(C(F)(F)F)c(Cl)cn2)s1 + CC(Nc1ncnc2nc[nH]c12)c1cc2cccc(Cl)c2c(=O)n1-c1ccccc1
4. CC(Cn1ccc(-c2ccc(C#N)c(Cl)c2)n1)NC(=O)c1cc(C(C)O)[nH]n1 (configuration not stated) + CC(Nc1ccc2c(c1)OCCn1cc(N3C(=O)OCC3C(F)F)nc1-2)C(N)=O
5. CCN1CCN(Cc2ccc(Nc3ncc(F)c(-c4cc(F)c5nc(C)n(C(C)C)c5c4)n3)nc2)CC1 + CC(Nc1ncnc2nc[nH]c12)c1cc2cccc(Cl)c2c(=O)n1-c1ccccc1

*A*
1. 62.5
2. 56.3
3. 92.5
4. 75.7
5. 100

Record viability, T/C for all entries; do not skip any.
1. Cn1ncc(Cl)c1-c1cc(C(=O)NC(CN)Cc2cccc(F)c2)sc1Cl (configuration not stated) + CC(Nc1ccc2c(c1)OCCn1cc(N3C(=O)OCC3C(F)F)nc1-2)C(N)=O
2. C#Cc1c(F)ccc2cc(O)cc(-c3ncc4c(N5CC6CCC(C5)N6)nc(OCC56CCCN5CC(F)C6)nc4c3F)c12 (configuration not stated) + COc1c(OCCCN2CCOCC2)ccc2c3n(c(=NC(=O)c4cnc(N)nc4)nc12)CCN3

*A*
[68, 56.1]

---

Tested on: 967376-340-R-J2-PDC multicell spheroid viability
Experiment: Anticancer human tumor 967376-340-R-J2-PDC cell line growth inhibition [PI3K];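 also: spheroids exposed to agents for 7 days before read-out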;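 as to viability, T/C: luminescence used as surrogate of cell viability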
Details: second compound 0.0316 µM; first compound 0.0316 µM; stronger effect = lower value
Property: viability, T/C (%)
Give bare numbers, in %.

Previously resolved entries follow.
*Q* Any idea what viability, T/C came out for CCN1CCN(Cc2ccc(Nc3ncc(F)c(-c4cc(F)c5nc(C)n(C(C)C)c5c4)n3)nc2)CC1 + CC(Nc1ccc2c(c1)OCCn1cc(N3C(=O)OCC3C(F)F)nc1-2)C(N)=O on 967376-340-R-J2-PDC multicell spheroid viability?
*A* 79.2

*Q* Request - read-out viability, T/C | tested on 967376-340-R-J2-PDC multicell spheroid viability | molecule C#Cc1c(F)ccc2cc(O)cc(-c3ncc4c(N5CC6CCC(C5)N6)nc(OCC56CCCN5CC(F)C6)nc4c3F)c12 (stereo unspecified) + Cc1nc(NC(=O)N2CCCC2C(N)=O)sc1-c1ccnc(C(C)(C)C(F)(F)F)c1
*A* 104

*Q* Lookup: viability, T/C / 967376-340-R-J2-PDC multicell spheroid viability / C#Cc1c(F)ccc2cc(O)cc(-c3ncc4c(N5CC6CCC(C5)N6)nc(OCC56CCCN5CC(F)C6)nc4c3F)c12 (stereo unspecified) + COc1c(OCCCN2CCOCC2)ccc2c3n(c(=NC(=O)c4cnc(N)nc4)nc12)CCN3
*A* 83

*Q* Short answer please: viability, T/C, 967376-340-R-J2-PDC multicell spheroid viability, entry CC(Cn1ccc(-c2ccc(C#N)c(Cl)c2)n1)NC(=O)c1cc(C(C)O)[nH]n1 (stereo unspecified) + CC(Nc1ccc2c(c1)OCCn1cc(N3C(=O)OCC3C(F)F)nc1-2)C(N)=O
*A* 82.6

Kindly give each listed record's viability, T/C.
1. CCCS(=O)(=O)Nc1ccc(F)c(C(=O)c2c[nH]c3ncc(-c4ccc(Cl)cc4)cc23)c1F + Cc1nc(NC(=O)N2CCCC2C(N)=O)sc1-c1ccnc(C(C)(C)C(F)(F)F)c1
2. CCCS(=O)(=O)Nc1ccc(F)c(C(=O)c2c[nH]c3ncc(-c4ccc(Cl)cc4)cc23)c1F + COc1c(OCCCN2CCOCC2)ccc2c3n(c(=NC(=O)c4cnc(N)nc4)nc12)CCN3

*A*
1: 80.2; 2: 68.1

Lab note: each molecule below needs its viability, T/C filled in.
1. Cn1nccc1Nc1nccc(-c2ccn(C(CO)c3ccc(Cl)c(F)c3)c(=O)c2)n1 (stereo unspecified) + CC(Nc1ncnc2nc[nH]c12)c1cc2cccc(Cl)c2c(=O)n1-c1ccccc1
2. CCN1CCN(Cc2ccc(Nc3ncc(F)c(-c4cc(F)c5nc(C)n(C(C)C)c5c4)n3)nc2)CC1 + CC(Nc1ncnc2nc[nH]c12)c1cc2cccc(Cl)c2c(=O)n1-c1ccccc1
3. CC1(C)CCC(Nc2ncc(C(F)(F)F)c(-c3c[nH]c4c(P(C)(C)=O)c(C#N)ccc34)n2)CN1 (stereo unspecified) + COc1c(OCCCN2CCOCC2)ccc2c3n(c(=NC(=O)c4cnc(N)nc4)nc12)CCN3
4. CC(C)n1nc(-c2ccc3oc(N)nc3c2)c2c(N)ncnc21 + COc1c(OCCCN2CCOCC2)ccc2c3n(c(=NC(=O)c4cnc(N)nc4)nc12)CCN3
5. Cn1ncc(Cl)c1-c1cc(C(=O)NC(CN)Cc2cccc(F)c2)sc1Cl (stereo unspecified) + Cc1nc(NC(=O)N2CCCC2C(N)=O)sc1-c1ccnc(C(C)(C)C(F)(F)F)c1

*A*
97.2
91.3
69.9
50
108

---

For each record, write down the corresponding viability, T/C.
Test system: 967376-340-R-J2-PDC multicell spheroid viability
Experiment: Anticancer human tumor 967376-340-R-J2-PDC cell line growth inhibition [PI3K];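 also: spheroids exposed to agents for 7 days before read-out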;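 as to viability, T/C: luminescence used as surrogate of cell viability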
Details: compound 3.16 µM; stronger effect = lower value

Worked set:
*Q* # value lookup — system 967376-340-R-J2-PDC multicell spheroid viability, readout viability, T/C, item Cn1ncc(Cl)c1-c1cc(C(=O)NC(CN)Cc2cccc(F)c2)sc1Cl (centres undefined)
*A* 81.3% [middle of 4 runs]

*Q* Enter reported viability, T/C observed with 967376-340-R-J2-PDC multicell spheroid viability for `C[C@@H](NC(=O)c1ncnc(N)c1Cl)c1ncc(C(=O)Nc2cc(C(F)(F)F)c(Cl)cn2)s1`
*A* 107% [middle of 4 runs]

*Q* What viability, T/C appears in the records for this compound with 967376-340-R-J2-PDC multicell spheroid viability? Cc1nc(NC(=O)N2CCCC2C(N)=O)sc1-c1ccnc(C(C)(C)C(F)(F)F)c1 (centres undefined)
*A* 64.3% [middle of 8 runs]

Next, consider the following compound.
*Q* Form field: viability, T/C recorded for `CC1(C)CCC(CN2CCN(c3ccc(C(=O)NS(=O)(=O)c4ccc(NCC5CCOCC5)c([N+](=O)[O-])c4)c(Oc4cnc5[nH]ccc5c4)c3)CC2)=C(c2ccc(Cl)cc2)C1` with 967376-340-R-J2-PDC multicell spheroid viability (enter value)
*A* 89.6% [middle of 4 runs]
